Settings: in water, 323.15 K
Measurement type: solubility (mole fraction)
Format: numeric value only, no unit, no commentary.

Reported solubility (mole fraction), compound Cc1[nH]nc2cc([N+](=O)[O-])ccc12 : ____
0.000182

###

Conditions: in water, 318.15 K
Measurement type: solubility (mole fraction)
Format: numeric value only, no unit, no commentary.

Reported solubility (mole fraction), compound Cc1[nH]nc2cc([N+](=O)[O-])ccc12 : ____
0.000151

###

Details: in ethanol, 298.15 K
Measurement type: solubility (mole fraction)

Reported solubility (mole fraction), molecule Cc1[nH]nc2cc([N+](=O)[O-])ccc12 : ____
0.00866

###

Details: in water, 303.15 K
Measurement type: solubility (mole fraction)
Format: numeric value only, no unit, no commentary.

Reported solubility (mole fraction), compound Cc1[nH]nc2cc([N+](=O)[O-])ccc12 : ____
7.91e-05

###

Details: in water, 298.15 K
Measurement type: solubility (mole fraction)
Format: numeric value only, no unit, no commentary.

Reported solubility (mole fraction), compound Cc1[nH]nc2cc([N+](=O)[O-])ccc12 : ____
6.15e-05

###

Conditions: in n-propanol, 323.15 K
Measurement type: solubility (mole fraction)
Format: numeric value only, no unit, no commentary.

Reported solubility (mole fraction), compound Cc1[nH]nc2cc([N+](=O)[O-])ccc12 : ____
0.017

###

Settings: in ethanol, 293.15 K
Measurement type: solubility (mole fraction)
Format: numeric value only, no unit, no commentary.

Reported solubility (mole fraction), compound Cc1[nH]nc2cc([N+](=O)[O-])ccc12 : ____
0.0073

###

Settings: in ethanol, 318.15 K
Measurement type: solubility (mole fraction)
Format: numeric value only, no unit, no commentary.

Reported solubility (mole fraction), compound Cc1[nH]nc2cc([N+](=O)[O-])ccc12 : ____
0.016

###

Details: in ethanol, 328.15 K
Measurement type: solubility (mole fraction)
Format: numeric value only, no unit, no commentary.

Reported solubility (mole fraction), compound Cc1[nH]nc2cc([N+](=O)[O-])ccc12 : ____
0.022

###

Conditions: in n-propanol, 318.15 K
Measurement type: solubility (mole fraction)
Format: numeric value only, no unit, no commentary.

Reported solubility (mole fraction), compound Cc1[nH]nc2cc([N+](=O)[O-])ccc12 : ____
0.0149

###

Settings: in ethanol, 288.15 K
Measurement type: solubility (mole fraction)
Format: numeric value only, no unit, no commentary.

Reported solubility (mole fraction), molecule Cc1[nH]nc2cc([N+](=O)[O-])ccc12 : ____
0.00619

###

Details: in n-propanol, 283.15 K
Measurement type: solubility (mole fraction)
Format: numeric value only, no unit, no commentary.

Reported solubility (mole fraction), compound Cc1[nH]nc2cc([N+](=O)[O-])ccc12 : ____
0.00574

###

Settings: in n-propanol, 293.15 K
Measurement type: solubility (mole fraction)
Format: numeric value only, no unit, no commentary.

Reported solubility (mole fraction), molecule Cc1[nH]nc2cc([N+](=O)[O-])ccc12 : ____
0.00793

###

Details: in n-propanol, 313.15 K
Measurement type: solubility (mole fraction)
Format: numeric value only, no unit, no commentary.

Reported solubility (mole fraction), compound Cc1[nH]nc2cc([N+](=O)[O-])ccc12 : ____
0.0133
